System: 3T3-L1
Assay: Inhibition of differentiation of mouse 3T3L1 cells assessed as lipid accumulation at 10 uM after 8 days by using Oil Red O staining by spectrophotometry relative to control
Format: functional
I'd be grateful if you could share measured Lipid accumulation relative to control for these entries.
Answers are plain numbers, in %.

# MOLECULE, Lipid accumulation relative to control / %
rows = [
    ("O=C(/C=C/CCc1ccc(O)c(O)c1)/C=C/c1ccc(O)c(O)c1", 86.5),
    ("Oc1ccc(CCCC[C@@H](O)CCc2ccc(O)c(O)c2)cc1O", 84.6),
    ("O=C(/C=C/c1ccc(O)c(O)c1)C[C@@H](O)CCc1ccc(O)cc1", 92.6),
    ("O=C(/C=C/CCc1ccc(O)c(O)c1)CCc1ccc(O)c(O)c1 [DEHYDROHIRSUTANONOL]", 86.1),
]

QUERY: Reported Lipid accumulation relative to control for 3T3-L1, given O=C(O[C@@H]1Cc2c(O)cc(O)cc2O[C@@H]1c1cc(O)c(O)c(O)c1)c1cc(O)c(O)c(O)c1 [EPIGALOCATECHIN GALLATE] ?
RESULT: 94.9

###

System: 3T3-L1
Experiment: Inhibition of differentiation of mouse 3T3L1 cells assessed as lipid accumulation at 50 uM after 8 days by using Oil Red O staining by spectrophotometry relative to control
Type: functional
RESULT TYPE: Lipid accumulation (% of control) (%)
Numbers only, in %.

# MOLECULE, Lipid accumulation (% of control) (%)
data = [
    ("O=C(CCc1ccc(O)cc1)C[C@H](CCc1ccc(O)cc1)O[C@@H]1OC[C@@H](O)[C@H](O)[C@H]1O", 28.9),
    ("O=C(/C=C/C=C/c1ccc(O)c(O)c1)CCc1ccc(O)c(O)c1", 108.9),
    ("O=C(CCc1ccc(O)c(O)c1)C[C@@H](O)CCc1ccc(O)c(O)c1 [HIRSUTANONOL]", 72.6),
    ("OC[C@H]1O[C@@H](O[C@H](CCCCc2ccc(O)cc2)CCc2ccc(O)cc2)[C@H](O)[C@@H](O)[C@@H]1O", 103.1),
    ("O=C(/C=C/c1ccc(O)c(O)c1)C[C@@H](O)CCc1ccc(O)cc1", 81.8),
]

Would you be so kind as to report Lipid accumulation (% of control) for each listed record?
1. O=C(CCc1ccc(O)cc1)C[C@@H](O)CCc1ccc(O)c(O)c1
2. O=C(/C=C/CCc1ccc(O)c(O)c1)CCc1ccc(O)c(O)c1 [DEHYDROHIRSUTANONOL]

RESULT:
[70.5, 45.7]

###

Tested on: 3T3-L1
Assay: Inhibition of differentiation of mouse 3T3L1 cells assessed as lipid accumulation at 10 uM after 8 days by using Oil Red O staining by spectrophotometry relative to control
Type: functional
I'd be grateful if you could share measured Lipid accumulation relative to control for these entries.
Give bare numbers, in %.

Sample answers from the record:
# COMPOUND, Lipid accumulation relative to control / %
records = [
    ("OC[C@H]1O[C@@H](O[C@H](CCCCc2ccc(O)cc2)CCc2ccc(O)cc2)[C@H](O)[C@@H](O)[C@@H]1O", 76),
    ("O=C(/C=C/C=C/c1ccc(O)c(O)c1)CCc1ccc(O)c(O)c1", 104.4),
    ("Oc1ccc(CC[C@@H](O)C[C@H](O)CCc2ccc(O)cc2)cc1 [(+)-HANNOKINOL]", 90.2),
    ("O=C(CCc1ccc(O)cc1)C[C@@H](O)CCc1ccc(O)c(O)c1", 77.3),
    ("O=C(CCc1ccc(O)c(O)c1)C[C@@H](O)CCc1ccc(O)c(O)c1 [HIRSUTANONOL]", 83.9),
]

Okay, now this compound:
QUERY: Reported Lipid accumulation relative to control for 3T3-L1, given `O=C(CCc1ccc(O)cc1)C[C@H](CCc1ccc(O)cc1)O[C@@H]1OC[C@@H](O)[C@H](O)[C@H]1O` ?
RESULT: 81.7
